Ref: the RNAGym collection of RNA variant scans (doi:10.1073/pnas.2313332121)

B1: TPR 5TU (parent)
chain: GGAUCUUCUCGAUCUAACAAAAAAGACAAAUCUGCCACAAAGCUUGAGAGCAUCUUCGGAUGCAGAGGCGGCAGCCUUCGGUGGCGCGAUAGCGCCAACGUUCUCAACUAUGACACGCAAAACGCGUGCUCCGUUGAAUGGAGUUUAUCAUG

Variants of: B1
assay.notes: polymerase ribozyme fitness, log enrichment relative to wild type (log ratio); higher = more active; in vitro selection for triplet polymerase activity
This sample holds only a part of the variants without activity.
readout.name: polymerase ribozyme fitness (log ratio)

// known answers, use as guide
{"columns": ["variant.identifier", "polymerase ribozyme fitness (log ratio)"],
 "data": [
  ["A26G C32A A39C C54A A150G", "≤ -4.2"],
  ["A89C G94C", -1.57],
  ["C14G U15G A19C A22C A41G G58C C93U", -3.91],
  ["U53A G59C C76G C85U A89C A97C A107U G117U G133A U139G", "≤ -4.2"],
  ["A3G U9G A16G A21C G84A G133C G141A", "≤ -4.2"]
]}

Next item in the queue.
Looking up U44G C54G C76G C85A , I found its polymerase ribozyme fitness (log ratio) recorded as ≤ -4.2
